- target desc: High affinity choline transporter 1 (Homo sapiens, UniProt Q9GZV3)
- Sequence (Q9GZV3 whole entry): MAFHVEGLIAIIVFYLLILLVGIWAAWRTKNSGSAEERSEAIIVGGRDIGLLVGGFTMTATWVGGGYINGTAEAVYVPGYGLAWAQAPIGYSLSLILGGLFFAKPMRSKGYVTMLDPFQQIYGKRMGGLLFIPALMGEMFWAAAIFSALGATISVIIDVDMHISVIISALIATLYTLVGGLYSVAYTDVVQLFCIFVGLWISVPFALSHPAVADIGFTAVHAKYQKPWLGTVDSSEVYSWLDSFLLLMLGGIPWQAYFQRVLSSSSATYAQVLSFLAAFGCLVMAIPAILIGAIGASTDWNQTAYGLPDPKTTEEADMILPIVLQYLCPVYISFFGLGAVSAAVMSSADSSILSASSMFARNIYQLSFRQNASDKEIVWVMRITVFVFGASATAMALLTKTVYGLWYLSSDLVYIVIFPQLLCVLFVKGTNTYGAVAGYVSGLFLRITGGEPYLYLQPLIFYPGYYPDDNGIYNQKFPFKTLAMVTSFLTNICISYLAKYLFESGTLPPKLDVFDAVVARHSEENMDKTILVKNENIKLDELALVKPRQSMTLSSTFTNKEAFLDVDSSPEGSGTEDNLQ
- assay remarks: Substrate uptake and inhibition of the High Affinity Choline Transporter 1 (CHT1, SLC5A7) as assessed by the fluorescent FLIPR membrane potential dye in HEK-293 JumpIN-SLC5A7 cells (PubChem AID: 1794811)
measure name: pEC50
Quick note: pEC50 values are minus log10 of concentrations in mol/L.

Looking up C[N+](C)(C)CCO.[Cl-] [CHOLINE CHLORIDE] , I found its pEC50 recorded as 4.77
